# target under test: recombinant human Dopamine Subtype D2s receptors (Homo sapiens)
# Construct: purchased Perkin Elmer
# Sequence (P14416 1-414 isoform P14416-2): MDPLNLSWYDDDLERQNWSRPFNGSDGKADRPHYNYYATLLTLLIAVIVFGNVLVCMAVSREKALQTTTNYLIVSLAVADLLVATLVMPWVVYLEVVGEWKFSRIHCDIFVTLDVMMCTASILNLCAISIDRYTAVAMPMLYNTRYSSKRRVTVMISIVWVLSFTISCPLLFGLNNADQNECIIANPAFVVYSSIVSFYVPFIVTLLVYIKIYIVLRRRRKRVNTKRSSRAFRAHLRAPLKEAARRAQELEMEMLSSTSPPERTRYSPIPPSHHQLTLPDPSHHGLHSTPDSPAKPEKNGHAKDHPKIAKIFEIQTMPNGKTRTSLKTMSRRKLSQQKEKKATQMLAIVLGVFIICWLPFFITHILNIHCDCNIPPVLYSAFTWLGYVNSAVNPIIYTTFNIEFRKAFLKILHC
# procedure summary: Dopamine D2 selectivity binding assay ([3H]-spiperone)
# condition summary: inhibition of [3H]-spiperone (0.16 nM) binding; read-out: D2 bind pIC50 (converted)
Counter-ions that a name gives are not always drawn.
attribute measured: IC50 (µM)
Write it as a number; the unit µM goes unstated.

Sample CC(CN(C(=O)CCNCCc1ccccc1)C1CCCCC1)NCCc1ccc(O)c2[nH]c(=O)sc12 (centres unmarked) [Example 105, bis-trifluoroacetic acid salt] — what was its IC50?
0.316

Another compound to look at: O=C(CCNCCc1ccc(O)c(Cl)c1)N(CCNCCc1ccc(O)c2[nH]c(=O)sc12)C1CCCCC1 [Example 89, bis-trifluoroacetic acid salt]
0.0794

Ok, now CCCC(CCC)N(CCNCCc1ccc(O)c2[nH]c(=O)sc12)C(=O)CCNCCc1cccc(F)c1 [Example 63, bis-trifluoroacetic acid salt]
0.2

Likewise for CC(C)(CO)CN(CCNCCc1ccc(O)c2[nH]c(=O)sc12)C(=O)CCNCCc1cccc(Cl)c1 [Example 66, bis-trifluoroacetic acid salt] ?
0.631

And for C[C@H](CNCCC(=O)N(CCNCCc1ccc(O)c2[nH]c(=O)sc12)C1CCCCC1)c1ccccc1 [Example 18, bis-trifluoroacetic acid salt] ?
0.794

----------
# target under test: recombinant human adrenergic beta 1 receptors (Homo sapiens, UniProt P08588)
# Construct: purchased Euroscreen
# Sequence (P08588 whole entry): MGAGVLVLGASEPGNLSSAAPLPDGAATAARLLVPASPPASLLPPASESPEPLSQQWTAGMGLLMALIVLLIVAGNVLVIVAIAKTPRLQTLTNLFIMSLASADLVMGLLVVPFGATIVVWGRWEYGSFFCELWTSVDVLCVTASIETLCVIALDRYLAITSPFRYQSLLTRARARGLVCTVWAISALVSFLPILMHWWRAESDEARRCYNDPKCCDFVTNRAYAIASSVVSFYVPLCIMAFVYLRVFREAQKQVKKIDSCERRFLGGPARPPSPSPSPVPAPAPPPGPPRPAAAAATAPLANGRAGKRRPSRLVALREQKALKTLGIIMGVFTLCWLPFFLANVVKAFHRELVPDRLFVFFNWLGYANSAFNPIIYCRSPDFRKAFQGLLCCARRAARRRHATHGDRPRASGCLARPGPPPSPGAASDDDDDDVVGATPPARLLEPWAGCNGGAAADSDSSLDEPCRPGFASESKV
# procedure summary: Adrenergic β1 selectivity binding assay ([125I]-Iodocyanopindolol)
# condition summary: inhibition of [125I]-Iodocyanopindolol (0.036 nM) binding; read-out: β1 bind p IC50 (converted)
# Experimental: Membranes containing recombinant human adrenergic beta 1 receptors were obtained from Euroscreen. […] Assays were performed in U-bottomed 96-well polypropylene plates. […] Five washes with 250 μL wash buffer (50 mM HEPES, 1 mM EDTA, 120 mM NaCl, pH 7.4) were performed at 4° C. to remove unbound radioactivity. […] The plates were sealed (TopSeal A) and filter-bound radioactivity was measured with a scintillation counter (TopCount, Packard BioScience) using a 3-minute counting protocol. […]
Where a name gives a salt, the structure may show the parent alone.
Hi there, I'd appreciate the recorded IC50 for every entry that follows.
Answer format: numeric, µM implied, no suffix.

What value of IC50 has been reported for the following compound? Cc1ccccc1CCNCCC(=O)N(CCNCCc1ccc(O)c2[nH]c(=O)sc12)C1CCOCC1 [Example 27, bis-trifluoroacetic acid salt]
5.01

What do we get for O=C(CCNCCc1cccc(F)c1F)N(CCNCCc1ccc(O)c2[nH]c(=O)sc12)C1CCCCC1 [Example 81, bis-trifluoroacetic acid salt] ?
6.31

Request: COc1ccc(CCNCCC(=O)N(CCNCCc2ccc(O)c3[nH]c(=O)sc23)C2CCCCCC2)cc1OC [Example 86, bis-trifluoroacetic acid salt]
2.51

Request: O=C(CCNCCc1ccc(F)cc1F)N(CCNCCc1ccc(O)c2[nH]c(=O)sc12)C1CCCCCC1 [Example 55, bis-trifluoroacetic acid salt]
2.51

Could you do the same for O=C(CCNCCc1cccc(Cl)c1)N(CCNCCc1ccc(O)c2[nH]c(=O)sc12)C1CCOCC1 [Example 22, bis-trifluoroacetic acid salt] , please?
3.98

How about O=C(CCNCCc1ccc(Cl)cc1)N(CCNCCc1ccc(O)c2[nH]c(=O)sc12)C1CCOCC1 [Example 26, bis-trifluoroacetic acid salt] ?
5.01

Try the compound O=C(CCNCCc1ccc(Cl)cc1)N(CCNCCc1ccc(O)c2[nH]c(=O)sc12)C1CCCCCC1 [Example 51, bis-trifluoroacetic acid salt]
2.51

Next record, please: O=C(CCNCCc1ccccc1)N(CCNCCc1ccc(O)c2[nH]c(=O)sc12)C1CCCC1 [Example 2, bis-trifluoroacetic acid salt]
5.01

Try O=C(CCNC[C@@H](O)c1ccccc1)N(CCNCCc1ccc(O)c2[nH]c(=O)sc12)C1CCCCC1 [Example 74, bis-trifluoroacetic acid salt] next.
3.16

// repeat for O=C(CCNCCc1ccc(Cl)cc1)N(CCNCCc1ccc(O)c2[nH]c(=O)sc12)C1CCCCC1 [Example 13, bis-trifluoroacetic acid salt] and report
3.16

Next compound: O=C(CCNCCc1cccc(OC(F)F)c1)N(CCNCCc1ccc(O)c2[nH]c(=O)sc12)C1CCCCCC1 [Example 54, bis-trifluoroacetic acid salt]
2.51

Next up: O=C(CCNCCc1ccccc1Cl)N(CCNCCc1ccc(O)c2[nH]c(=O)sc12)C1CCCC1 [Example 29, bis-trifluoroacetic acid salt]
3.16
